# Target: S. pyogenes SKKanGAS, kanamycin survival, BacTiterGlo, 6 h
# Assay Procedure: S. pyogenes SKKanGAS kanamycin growth inhibitors – SKKanGAS strain, luminescence, dose confirmation, streptokinase promoter inhibitor project, dose response (AID 1902);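 note: lower survival reflects blocked streptokinase promoter driving kanamycin resistance gene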
Calls of active or inactive are those of the source.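 Rule for the calls: active = EC50 no more than a set limit of log units above the highest dose; inactive = the rest.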
Answer with one of the outcomes active, inactive

Known results for compounds:
[[record]]
compound = "CC1=C(C(=O)Nc2ccc([N+](=O)[O-])cc2)C(c2cccc(C(F)(F)F)c2)NC(=S)N1c1ccccc1 (stereo not drawn)"
qualitative_label = "active"

[[record]]
compound = "Cc1[nH]cnc1C(=O)N/N=C/c1ccc([N+](=O)[O-])s1"
qualitative_label = "active"

[[record]]
compound = "CCCc1ccc(-c2cc(C(=O)N/N=C/c3ccc([N+](=O)[O-])o3)c3ccccc3n2)cc1"
qualitative_label = "active"

[[record]]
compound = "COc1ccc(C(=O)N2CCc3c([nH]c4ccccc34)C2C(F)(F)F)cc1 (stereo not drawn)"
qualitative_label = "inactive"


Enquiry: What call does the record list for CCCCCCCCCCCCOC(=O)C[N+](C)(C)C ?
Return: active

Enquiry: What call does the record list for O=C(c1ccccc1)c1cc2ccc(O)cc2oc1=O ?
Return: active

Enquiry: What call does the record list for CC1CN(Cc2nc3c(c(=O)[nH]c(=O)n3C)n2CCCc2ccccc2)CC(C)O1 (stereo not drawn) ?
Return: inactive

Enquiry: What call does the record list for Cc1ccc(S(=O)(=O)CNC(=S)c2ccc3ccccc3c2)cc1 ?
Return: active

---

Form field: EC50 (one value per entry).
# Target: S. pyogenes SKKanGAS, kanamycin survival, BacTiterGlo, 6 h
# Assay Procedure: S. pyogenes SKKanGAS kanamycin growth inhibitors – SKKanGAS strain, luminescence, dose confirmation, streptokinase promoter inhibitor project, dose response (AID 1902);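 note: lower survival reflects blocked streptokinase promoter driving kanamycin resistance gene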
Active and inactive are the calls of the source.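 The calls were made as follows: active = EC50 no more than a set limit of log units above the highest dose; inactive = the rest.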

Example results:
[[record]]
compound = "Cc1ccc2nc(-c3ccc(NS(=O)(=O)c4ccc(F)c(F)c4)cc3)sc2c1"
target = "S. pyogenes SKKanGAS, kanamycin survival, BacTiterGlo, 6 h"
observed_property = "EC50"
result = "2690 nM"

[[record]]
compound = "Cc1cccc(CSc2nc(N)c(C#N)c(-c3cccs3)c2C#N)c1"
target = "S. pyogenes SKKanGAS, kanamycin survival, BacTiterGlo, 6 h"
observed_property = "EC50"
result = "4770 nM"

[[record]]
compound = "CCC(=O)NC(=S)Nc1ccc(NC(=S)NC(=O)c2ccccc2)cc1"
target = "S. pyogenes SKKanGAS, kanamycin survival, BacTiterGlo, 6 h"
observed_property = "EC50"
result = "805 nM"

[[record]]
compound = "c1ccc2c(c1)nc(Nc1ccc(N3CCCCC3)cc1)c1nncn12"
target = "S. pyogenes SKKanGAS, kanamycin survival, BacTiterGlo, 6 h"
observed_property = "EC50"
result = "6030 nM"

[[record]]
compound = "COc1ccc(C2C(C(=O)c3ccccc3)=C(C)Nc3nc4ccccc4n32)c(OC)c1 (stereo not drawn)"
target = "S. pyogenes SKKanGAS, kanamycin survival, BacTiterGlo, 6 h"
observed_property = "EC50"
result = "6100 nM"


Enquiry: Give recorded EC50 with S. pyogenes SKKanGAS, kanamycin survival, BacTiterGlo, 6 h for the following compound: O=c1oc2ccccc2c(O)c1C(c1ccc([N+](=O)[O-])cc1)c1c(O)c2ccccc2oc1=O
Return: 6300 nM

Enquiry: Give recorded EC50 with S. pyogenes SKKanGAS, kanamycin survival, BacTiterGlo, 6 h for the following compound: Oc1c(CN2CCN(c3ccc(F)cc3)CC2)cc(Cl)c2cccnc12
Return: 1010 nM

Enquiry: Give recorded EC50 with S. pyogenes SKKanGAS, kanamycin survival, BacTiterGlo, 6 h for the following compound: CC(C)c1ccc(-c2nc(N3CCCC3)nc3n[nH]c(N)c23)cc1
Return: 8740 nM

Enquiry: Give recorded EC50 with S. pyogenes SKKanGAS, kanamycin survival, BacTiterGlo, 6 h for the following compound: Cc1ccc(S(=O)(=O)N(C)CC(=O)N2CC(C)OC(C)C2)cc1 (stereo not drawn)
Return: > 15000 nM (inactive)

Enquiry: Give recorded EC50 with S. pyogenes SKKanGAS, kanamycin survival, BacTiterGlo, 6 h for the following compound: Oc1[nH]c2ccccc2c1N=NC(=S)N1CCOCC1
Return: 273 nM

Enquiry: Give recorded EC50 with S. pyogenes SKKanGAS, kanamycin survival, BacTiterGlo, 6 h for the following compound: Cc1c(Cl)c(C(F)F)nn1CC(=O)NC1C(=O)N2C(C(=O)O)=C(CSc3nnnn3C)CSC12 (stereo not drawn)
Return: < 60 nM

Enquiry: Give recorded EC50 with S. pyogenes SKKanGAS, kanamycin survival, BacTiterGlo, 6 h for the following compound: COc1ccc(S(=O)(=O)N[C@@H](C)C(=O)OCC(=O)Nc2cc3oc4ccccc4c3cc2OC)cc1
Return: 1420 nM

Enquiry: Give recorded EC50 with S. pyogenes SKKanGAS, kanamycin survival, BacTiterGlo, 6 h for the following compound: CC1(C)S[C@@H]2[C@H](NC(=O)C(NC(=O)N3CCNC3=O)c3ccccc3)C(=O)N2[C@H]1C(=O)O (stereo partly drawn)
Return: < 60 nM

Enquiry: Give recorded EC50 with S. pyogenes SKKanGAS, kanamycin survival, BacTiterGlo, 6 h for the following compound: Cc1cccc(Cc2cnc(N3C(=N)SC(C)C3=O)s2)c1 (stereo not drawn)
Return: 131 nM

Enquiry: Give recorded EC50 with S. pyogenes SKKanGAS, kanamycin survival, BacTiterGlo, 6 h for the following compound: CCOC(=O)c1sc2ncnc(N3CCN(c4ccc(OC)cc4)CC3)c2c1C
Return: 10300 nM

Enquiry: Give recorded EC50 with S. pyogenes SKKanGAS, kanamycin survival, BacTiterGlo, 6 h for the following compound: O=C(COc1ccccc1)NNC(=S)NC(=O)c1ccc(Cl)cc1Cl
Return: 361 nM

Enquiry: Give recorded EC50 with S. pyogenes SKKanGAS, kanamycin survival, BacTiterGlo, 6 h for the following compound: O=C(COc1ccc(Cl)cc1Cl)Nc1ccc(-c2ccc(N3CCOCC3)nn2)cc1
Return: > 15000 nM (inactive)

Enquiry: Give recorded EC50 with S. pyogenes SKKanGAS, kanamycin survival, BacTiterGlo, 6 h for the following compound: Cc1cccc(C(=O)NC(=S)NNC(=O)c2ccc(Cl)cc2)c1
Return: 187 nM
